Form field: protein stability index (one value per entry).
B1: CDC14A (parent)
chain: LNLAMVYRYCCKLNKKLKSYSLSR

Variants of: B1
Assay: protein stability index of a GFP-peptide fusion (GPS, HEK-293T) (PSI 1-6); higher = more stable;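 further: lentivirally expressed fusions sorted by FACS into six bins by GFP to DsRed ratio, PSI derived from sequencing read proportions per bin multiplied by bin number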
Settings: c terminus: a fixed tail appended

>  <seqText>
LNLAMVYRYCCKLNKKSKSYSLSR

>  <result>
2.17

$$$$
>  <seqText>
LNLAMVYRYCYKLNKKLKSYSLSR

>  <result>
2.63

$$$$
>  <seqText>
LNLAMVYRYCCKLHKKLKSYSLSR

>  <result>
3.21

$$$$

Fill in the blank: the reported protein stability index of "LNLAMVYRYCCKLNKKLKSYSLER" is ____.
4.66

Fill in the blank: the reported protein stability index of "LNLAMVYRYCCLLNKKLKSYSLSR" is ____.
2.5

Fill in the blank: the reported protein stability index of "LNLAMVYFYCCKLNKKLKSYSLSR" is ____.
3.02

Fill in the blank: the reported protein stability index of "LNLAMVYRYCCKLNKKLKQYSLSR" is ____.
1.51

Fill in the blank: the reported protein stability index of "LNLAMVYRYCCKLNKKTKSYSLSR" is ____.
2.08

Fill in the blank: the reported protein stability index of "LNLAMVYRYCCKLNKKLDSYSLSR" is ____.
2.42

Fill in the blank: the reported protein stability index of "LNLAMVYRYCCKLYKKLKSYSLSR" is ____.
3.35

Fill in the blank: the reported protein stability index of "LNLAMVYRYCCKLNKKLESYSLSR" is ____.
3.12

Fill in the blank: the reported protein stability index of "LNLAMVYRYCCKLNKKLKSYSLSE" is ____.
2.72
